The values you see were collected from the supplement of paper PMC10567573.

B1: FBF1 (parent)
chain: YQRPQDSEDMWGDEDFTFGAYQPT

variants of: B1; test: protein stability index of a GFP-peptide fusion (GPS, HEK-293T) (PSI 1-6); higher = more stable; settings: c terminus: a fixed tail appended;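 further: lentivirally expressed fusions sorted by FACS into six bins by GFP to DsRed ratio, PSI derived from sequencing read proportions per bin multiplied by bin number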
valueType: protein stability index
# respond with the number and nothing more

Worked set:
> print(dat)
                 constructsequence  measuredvalue
1   YQRGQDSEDMWGDEDFTFGAYQPT [P4G]           2.69
2  YQRPQDSEDMWGDEKFTFGAYQPT [D15K]           1.73
3  YQRPQDSEDMWGDEDFTTGAYQPT [F18T]           3.77
4  YQRPQDSEDMWGREDFTFGAYQPT [D13R]           2.89
5  YQRPQDSEDMWGDEDFTFRAYQPT [G19R]           2.47

// below: protein stability index requested for another variant
Problem: Let me know recorded protein stability index for YQRPQDSEDMWGTEDFTFGAYQPT [D13T] , thanks.
Result: 1.77
